- Tested on: A. baumannii
- Condition Set: 24 h
Positions of bridges follow the written chain, without caps; N, C: chain ends. Non-standard residues stand in square brackets, D forms with d. Residues, ends and D or L forms follow the SMILES beside them. R8 = C=CCCCCCC[C@@](C)(N)C(=O)O; S5 = C=CCCC[C@](C)(N)C(=O)O
Readings of MIC A. baumannii for the listed compounds

>  <Compound>
CC(=O)N[C@@H](CCCCN)C(=O)N[C@@H](CCCNC(=N)N)C(=O)N[C@@]1(C)CCCC=CCCC[C@@](C)(C(=O)N[C@@H](CCCCN)C(=O)N[C@@H](CC(=O)O)C(=O)N[C@@H](Cc2ccccc2)C(=O)N[C@@H](CC(C)C)C(=O)N[C@@H](CCCNC(=N)N)C(N)=O)NC(=O)[C@H](CCCNC(=N)N)NC(=O)[C@H](CCC(N)=O)NC(=O)[C@H](C(C)C)NC1=O [KR-12 (I3, I7)] (Ac-KR[S5]VQR[S5]KDFLR-NH2; staple 3-7)

>  <System Tested>
A. baumannii

>  <Units Symbol>
µg/mL

>  <MIC A. baumannii>
32

$$$$
>  <Compound>
CC[C@H](C)[C@@H]1NC(=O)[C@H](CCCNC(=N)N)NC(=O)[C@H](CCC(N)=O)NC(=O)[C@H](C(C)C)NC(=O)[C@H]([C@@H](C)CC)NC(=O)[C@](C)(NC(=O)[C@H](CCCCN)NC(C)=O)CCCCCCC=CCCC[C@@](C)(C(=O)N[C@@H](Cc2ccccc2)C(=O)N[C@@H](CC(C)C)C(=O)N[C@@H](CCCNC(=N)N)C(N)=O)NC(=O)[C@H](CCCCN)NC1=O [KR-12 (R2, D9)] (Ac-K[R8]IVQRIK[S5]FLR-NH2; staple 2-9)

>  <System Tested>
A. baumannii

>  <Units Symbol>
µg/mL

>  <MIC A. baumannii>
128

$$$$
>  <Compound>
CC[C@H](C)[C@H](NC(=O)[C@H](CCCNC(=N)N)NC(=O)[C@H](CCCCN)NC(C)=O)C(=O)N[C@H](C(=O)N[C@@H](CCC(N)=O)C(=O)N[C@@H](CCCNC(=N)N)C(=O)N[C@@]1(C)CCCC=CCCC[C@@](C)(C(=O)N[C@@H](CCCNC(=N)N)C(N)=O)NC(=O)[C@H](Cc2ccccc2)NC(=O)[C@H](CC(=O)O)NC(=O)[C@H](CCCCN)NC1=O)C(C)C [KR-12 (I7, L11)] (Ac-KRIVQR[S5]KDF[S5]R-NH2; staple 7-11)

>  <System Tested>
A. baumannii

>  <Units Symbol>
µg/mL

>  <MIC A. baumannii>
64

$$$$

###

- Tested on: A. baumannii
- Condition Set: 24 h
Positions of bridges follow the written chain, without caps; N, C: chain ends. Non-standard residues stand in square brackets, D forms with d. Residues, ends and D or L forms follow the SMILES beside them. R8 = C=CCCCCCC[C@@](C)(N)C(=O)O; S5 = C=CCCC[C@](C)(N)C(=O)O

>  <Compound>
CC[C@H](C)[C@@H]1NC(=O)[C@H](CCCNC(=N)N)NC(=O)[C@](C)(NC(C)=O)CCCCCCC=CCCC[C@@](C)(C(=O)N[C@@H](CC(=O)O)C(=O)N[C@@H](Cc2ccccc2)C(=O)N[C@@H](CC(C)C)C(=O)N[C@@H](CCCNC(=N)N)C(N)=O)NC(=O)[C@H]([C@@H](C)CC)NC(=O)[C@H](CCCNC(=N)N)NC(=O)[C@H](CCC(N)=O)NC(=O)[C@H](C(C)C)NC1=O [KR-12 (K1, K8)] (Ac-[R8]RIVQRI[S5]DFLR-NH2; staple 1-8)

>  <Value Comparator>
>

>  <MIC A. baumannii [µg/mL]>
256

$$$$
>  <Compound>
CC[C@H](C)[C@@H]1NC(=O)[C@H](CCCNC(=N)N)NC(=O)[C@H](CCC(N)=O)NC(=O)[C@](C)(NC(=O)[C@@H](NC(=O)[C@H](CCCNC(=N)N)NC(=O)[C@H](CCCCN)NC(C)=O)[C@@H](C)CC)CCCCCCC=CCCC[C@@](C)(C(=O)N[C@@H](CCCNC(=N)N)C(N)=O)NC(=O)[C@H](Cc2ccccc2)NC(=O)[C@H](CC(=O)O)NC(=O)[C@H](CCCCN)NC1=O [KR-12 (V4, L11)] (Ac-KRI[R8]QRIKDF[S5]R-NH2; staple 4-11)

>  <Value Comparator>
=

>  <MIC A. baumannii [µg/mL]>
128

$$$$

###

Readings of MIC E. faecalis for the listed compounds
- Test system: E. faecalis
- Condition Set: 24 h
Positions of bridges follow the written chain, without caps; N, C: chain ends. Non-standard residues stand in square brackets, D forms with d. Residues, ends and D or L forms follow the SMILES beside them. R8 = C=CCCCCCC[C@@](C)(N)C(=O)O; S5 = C=CCCC[C@](C)(N)C(=O)O
Reported Endpoint: MIC E. faecalis (µg/mL)

>  <Compound>
CC[C@H](C)[C@H](NC(=O)[C@H](CCCNC(=N)N)NC(=O)[C@H](CCCCN)NC(C)=O)C(=O)N[C@H](C(=O)N[C@@H](CCC(N)=O)C(=O)N[C@@H](CCCNC(=N)N)C(=O)N[C@@]1(C)CCCC=CCCC[C@@](C)(C(=O)N[C@@H](CCCNC(=N)N)C(N)=O)NC(=O)[C@H](Cc2ccccc2)NC(=O)[C@H](CC(=O)O)NC(=O)[C@H](CCCCN)NC1=O)C(C)C [KR-12 (I7, L11)] (Ac-KRIVQR[S5]KDF[S5]R-NH2; staple 7-11)

>  <Quantitative Result>
32

$$$$
>  <Compound>
CC[C@H](C)[C@@H]1NC(=O)[C@H](CCCNC(=N)N)NC(=O)[C@](C)(NC(=O)[C@@H](NC(=O)[C@@H](NC(=O)[C@H](CCCNC(=N)N)NC(=O)[C@H](CCCCN)NC(C)=O)[C@@H](C)CC)C(C)C)CCCCCCC=CCCC[C@@](C)(C(N)=O)NC(=O)[C@H](CC(C)C)NC(=O)[C@H](Cc2ccccc2)NC(=O)[C@H](CC(=O)O)NC(=O)[C@H](CCCCN)NC1=O [KR-12 (Q5, R12)] (Ac-KRIV[R8]RIKDFL[S5]-NH2; staple 5-12)

>  <Quantitative Result>
256

$$$$

###

- System: A. baumannii
- Condition Set: 24 h
Positions of bridges follow the written chain, without caps; N, C: chain ends. Non-standard residues stand in square brackets, D forms with d. Residues, ends and D or L forms follow the SMILES beside them. R8 = C=CCCCCCC[C@@](C)(N)C(=O)O; S5 = C=CCCC[C@](C)(N)C(=O)O
Readings of MIC A. baumannii for the listed molecules

>  <Molecule>
CC[C@H](C)[C@@H]1NC(=O)[C@H](CCCNC(=N)N)NC(=O)[C@](C)(NC(=O)[C@@H](NC(=O)[C@@H](NC(=O)[C@H](CCCNC(=N)N)NC(=O)[C@H](CCCCN)NC(C)=O)[C@@H](C)CC)C(C)C)CCCCCCC=CCCC[C@@](C)(C(N)=O)NC(=O)[C@H](CC(C)C)NC(=O)[C@H](Cc2ccccc2)NC(=O)[C@H](CC(=O)O)NC(=O)[C@H](CCCCN)NC1=O [KR-12 (Q5, R12)] (Ac-KRIV[R8]RIKDFL[S5]-NH2; staple 5-12)

>  <MIC A. baumannii>
64 µg/mL

$$$$
>  <Molecule>
CC[C@H](C)[C@@H]1NC(=O)[C@H](CCCNC(=N)N)NC(=O)[C@H](CCC(N)=O)NC(=O)[C@H](C(C)C)NC(=O)[C@](C)(NC(=O)[C@H](CCCNC(=N)N)NC(=O)[C@H](CCCCN)NC(C)=O)CCCCCCC=CCCC[C@@](C)(C(=O)N[C@@H](CC(C)C)C(=O)N[C@@H](CCCNC(=N)N)C(N)=O)NC(=O)[C@H](CC(=O)O)NC(=O)[C@H](CCCCN)NC1=O [KR-12 (I3, F10)] (Ac-KR[R8]VQRIKD[S5]LR-NH2; staple 3-10)

>  <MIC A. baumannii>
32 µg/mL

$$$$
>  <Molecule>
CC[C@H](C)[C@H](NC(=O)[C@]1(C)CCCC=CCCC[C@](C)(NC(=O)[C@H](CCCCN)NC(C)=O)C(=O)N[C@@H]([C@@H](C)CC)C(=O)N[C@@H](C(C)C)C(=O)N[C@@H](CCC(N)=O)C(=O)N1)C(=O)N[C@@H](CCCCN)C(=O)N[C@@H](CC(=O)O)C(=O)N[C@@H](Cc1ccccc1)C(=O)N[C@@H](CC(C)C)C(=O)N[C@@H](CCCNC(=N)N)C(N)=O [KR-12 (R2, R6)] (Ac-K[S5]IVQ[S5]IKDFLR-NH2; staple 2-6)

>  <MIC A. baumannii>
> 256 µg/mL

$$$$
>  <Molecule>
CC[C@H](C)[C@@H]1NC(=O)[C@H](CCCNC(=N)N)NC(=O)[C@@](C)(NC(=O)[C@@H](NC(=O)[C@@H](NC(=O)[C@H](CCCNC(=N)N)NC(=O)[C@H](CCCCN)NC(C)=O)[C@@H](C)CC)C(C)C)CCCC=CCCC[C@@](C)(C(=O)N[C@@H](Cc2ccccc2)C(=O)N[C@@H](CC(C)C)C(=O)N[C@@H](CCCNC(=N)N)C(N)=O)NC(=O)[C@H](CCCCN)NC1=O [KR-12 (Q5, D9)] (Ac-KRIV[S5]RIK[S5]FLR-NH2; staple 5-9)

>  <MIC A. baumannii>
16 µg/mL

$$$$
